Test system: HIVLAI
Assay: Cell-based antiviral assay in MT-2 human-T-lymphoid cells exposed to HIVLAI
Design: species or system HIV-1
Settings: Human immunodeficiency virus 1, MT2
endpoint: pEC50
Entry type: numeric. Quantity: pEC50, the -log10 of concentration in molar units.

Exercise: Look up pEC50: CC(C)CN(C[C@@H](O)[C@H](Cc1ccccc1)NC(=O)O[C@H]1CO[C@H]2OCC[C@H]21)S(=O)(=O)c1ccc(N)cc1 [Darunavir, darunavir, reference compound]
Key: 8.80
